system: LoVo; assay: Cytotoxicity against human doxorubicin resistant LoVo cells after 48 hrs by SRB assay; type: functional
property.measured: TGI (nM)
Give just the numeric value; nM need not be written.

In the examples that follow, each entry is paired with its recorded TGI.
{"smiles.repr": "C/C=C1\\NC(=O)[C@H](Cc2ccccc2)NC(=O)[C@@H](C(C)C)NC(=O)[C@@H]([C@H](C)CC)NC(=O)[C@H](NC(=O)[C@H](NC(=O)[C@H](CCCN)NC(=O)[C@H]2CCCN2C(=O)[C@H](NC(=O)[C@@H](NC(=O)[C@@H](NC(=O)[C@H]2CCCN2C(=O)CCCC(C)C)[C@@H](C)O)C(C)C)C(C)C)[C@H](C)CC)[C@H](C)OC(=O)[C@H](C(C)C)NC1=O", "assay.system": "LoVo", "property.measured": "TGI", "val": 3370}
{"smiles.repr": "C/C=C1\\NC(=O)[C@H](Cc2ccccc2)NC(=O)[C@@H](C(C)C)NC(=O)[C@@H]([C@H](C)CC)NC(=O)[C@H](NC(=O)[C@H](NC(=O)[C@H](CCCN)NC(=O)[C@H]2CCCN2C(=O)[C@H](NC(=O)[C@@H](NC(=O)[C@@H](NC(=O)[C@H](NC(=O)C(F)(F)C(F)(F)C(F)(F)C(F)(F)C(F)(F)C(F)(F)F)C(C)C)[C@@H](C)O)C(C)C)C(C)C)[C@H](C)CC)[C@H](C)OC(=O)[C@H](C(C)C)NC1=O", "assay.system": "LoVo", "property.measured": "TGI", "val": 289}
{"smiles.repr": "CC[C@@H](C)[C@@H](NC(=O)[C@H](CCCN)NC(=O)[C@H]1CCCN1C(=O)[C@H](NC(=O)[C@@H](NC(=O)[C@@H](NC(=O)[C@H](NC(=O)CCCC(C)C)C(C)C)[C@@H](C)O)C(C)C)C(C)C)C(=O)N[C@H]1C(=O)N[C@H]([C@H](C)CC)C(=O)N[C@H](C(C)C)C(=O)N[C@@H](Cc2ccccc2)C(=O)NCC(=O)N[C@@H](C(C)C)C(=O)O[C@H]1C", "assay.system": "LoVo", "property.measured": "TGI", "val": 1020}
{"smiles.repr": "C/C=C1\\NC(=O)[C@H](Cc2ccccc2)NC(=O)[C@@H](C(C)C)NC(=O)[C@@H]([C@H](C)CC)NC(=O)[C@H](NC(=O)[C@H](NC(=O)[C@H](CCCN)NC(=O)[C@H]2CCCN2C(=O)[C@H](NC(=O)[C@@H](NC(=O)[C@@H](NC(=O)[C@@H](CCC(=O)O)NC(=O)CCCC(C)C)[C@@H](C)O)C(C)C)C(C)C)[C@H](C)CC)[C@H](C)OC(=O)[C@H](C(C)C)NC1=O", "assay.system": "LoVo", "property.measured": "TGI", "val": 2220}

Shifting focus to the compound that follows.
(Q) If you can, please state the reported TGI value of `C/C=C1\NC(=O)[C@H](Cc2ccccc2)NC(=O)[C@@H](C(C)C)NC(=O)[C@@H]([C@H](C)CC)NC(=O)[C@H](NC(=O)[C@H](NC(=O)[C@H](CCCN)NC(=O)[C@H]2CCCN2C(=O)[C@H](NC(=O)[C@@H](NC(=O)CNC(=O)[C@H](NC(=O)CCCC(C)C)C(C)C)C(C)C)C(C)C)[C@H](C)CC)[C@H](C)OC(=O)[C@H](C(C)C)NC1=O` .
(A) 3040
